Hello, the source for this data is paper PMC12297293, in case you need it.

measuredTarget: human GMPK wild type (Homo sapiens, UniProt Q16774)
testDescription: ITC binding of nucleotides to wild-type GMPK
measurementContext: GMP binding to GMPK without prior incubation
valueKind: pKd
pKd is a log-scale quantity: -log10 of the concentration expressed in molar.

Could you tell me which pKd is on file for Nc1nc2c(ncn2[C@@H]2O[C@H](COP(=O)(O)O)[C@@H](O)[C@H]2O)c(=O)[nH]1 [GMP] ? 4.49

###

Protein target, amino acids: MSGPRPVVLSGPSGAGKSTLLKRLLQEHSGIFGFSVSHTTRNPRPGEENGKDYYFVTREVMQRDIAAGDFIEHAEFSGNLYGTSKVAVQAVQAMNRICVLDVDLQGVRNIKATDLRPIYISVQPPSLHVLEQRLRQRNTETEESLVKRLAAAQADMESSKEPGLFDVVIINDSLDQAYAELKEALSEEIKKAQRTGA
valueKind: pKd
pKd is a log-scale quantity: -log10 of the concentration expressed in molar.

Could you tell me which pKd is on file for Nc1nc2c(ncn2[C@@H]2O[C@H](COP(=O)(O)O)[C@@H](O)[C@H]2O)c(=O)[nH]1 [GMP] ? 4.22
